pIC50 listing for selected molecules.
# System: JAK1/TYK2 pSTAT5 (Tyr694/699) in THP-1 cell line
# MEASUREMENT_PROTOCOL: IFNa-stimulated JAK1/TYK2 pSTAT5 (Tyr694/699) inhibition cellular assay, AlphaLISA
# Format: cell-based
# RUN_PARAMETERS: Homo sapiens; THP-1 cells, IFNa-stimulated, AlphaLISA (Assay B); read-out: Cellular THP1_IFNa-pSTATS_IC50
pIC50: −log10 of the molar value.

Worked set:
CNc1ncc(-c2ccc(C(=O)C3CC3)cc2)c2cc(NC(=O)C3CC3)ncc12	< 6.30
CNc1ncc(-c2ncsc2C)c2cc(NC(=O)C3CC3)ncc12	< 6.30
CNc1ncc(-c2cnn(CCOC)c2)c2cc(NC(=O)C3CC3)ncc12	< 6.30
CNc1ncc(-c2cccc(COC)c2)c2cc(NC(=O)C3CC3)ncc12	< 6.30
CNc1ncc(-c2ccccc2C#N)c2cc(NC(=O)C3CC3)ncc12	< 6.30

Ask: Return value of pIC50 for input CNc1ncc(-c2ccccc2S(C)(=O)=O)c2cc(NC(=O)C3CC3)ncc12 , no commentary.
Reply: < 6.30

Ask: Entry CNc1ncc(-c2ccns2)c2cc(NC(=O)C3CC3)ncc12 needs its pIC50 filled in; supply it.
Reply: < 6.30

Ask: Tell me measured pIC50 for CNc1ncc(/C=C/c2ccccc2OC)c2cc(NC(=O)C3CC3)ncc12 please.
Reply: ≥ 6.30

Ask: For the molecule CNc1ncc(-c2nc3ccc(F)cc3o2)c2cc(NC(=O)C3CC3)ncc12 , give its reported pIC50.
Reply: ≥ 6.30

Ask: For CCC(=O)c1cnc(NC)c2cnc(NC(=O)C3CC3)cc12 , write its pIC50.
Reply: < 6.30

Ask: Give the measured pIC50 for CNc1ncc(C2CCCOC2)c2cc(NC(=O)C3CC3)ncc12 (stereo not shown)
Reply: < 6.30

Ask: Note pIC50 for the molecule shown: CCn1ccc(-c2cnc(NC)c3cnc(NC(=O)C4CC4)cc23)n1
Reply: ≥ 6.30

Ask: Please supply the value of reported pIC50 for the item CNc1ncc(-c2ccn[nH]2)c2cc(NC(=O)C3CC3)ncc12
Reply: < 6.30

----------
// reported pKd per item
# SYSTEM_TESTED: TYK2 JH2 (Homo sapiens, UniProt P29597)
# Construct: purchased DiscoverX (KINOMEscan KdELECT service); host or cells: E. coli BL21-derived (T7 phage display) or HEK-293
# Sequence (P29597 589-875 limits assumed): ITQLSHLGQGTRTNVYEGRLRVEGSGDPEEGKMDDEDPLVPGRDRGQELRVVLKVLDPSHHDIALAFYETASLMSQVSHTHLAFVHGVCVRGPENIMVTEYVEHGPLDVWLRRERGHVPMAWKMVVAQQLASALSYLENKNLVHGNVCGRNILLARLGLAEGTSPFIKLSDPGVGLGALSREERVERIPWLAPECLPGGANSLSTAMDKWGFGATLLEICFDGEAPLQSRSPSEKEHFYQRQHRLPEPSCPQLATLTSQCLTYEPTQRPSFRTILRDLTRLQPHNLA
# MEASUREMENT_PROTOCOL: TYK2 JH2 binding assay (KINOMEscan KdELECT competitive binding)
# RUN_PARAMETERS: TYK2 JH2 domain, KINOMEscan KdELECT (Assay A); read-out: Biochemical TYK2_JH2_Kd
pKd: −log10 of the molar value.

Example compounds with recorded pKd:
CNc1ncc(-c2ccccn2)c2cc(NC(=O)C3CC3)ncc12	≥ 7.00
CNc1ncc(-c2ccns2)c2cc(NC(=O)C3CC3)ncc12	≥ 7.00
CNc1ncc(-c2ccncn2)c2cc(NC(=O)C3CC3)ncc12	≥ 7.00
CNc1ncc(C#CC(=O)C2CC2)c2cc(NC(=O)C3CC3)ncc12	≥ 7.00
CCc1ncc(-c2ccccc2)c2cc(NC(=O)C3CC3)ncc12	≥ 7.00
CNc1ncc(-c2nc3cc(N4CCC4)ccn3n2)c2cc(NC(=O)C3CC3)ncc12	≥ 7.00
CNc1ncc(-c2ccccc2COC)c2cc(NC(=O)C3CC3)ncc12	≥ 7.00
C=Cc1cc2cc(NC(=O)C3CC3)ncc2c(NC)n1	6.00 to 7.00

Ask: Give pKd for this entry on TYK2 JH2 (Homo sapiens, UniProt P29597): CNc1ncc(-c2ccn(CC(F)(F)F)n2)c2cc(NC(=O)C3CC3)ncc12
Reply: ≥ 7.00

Ask: Provide TYK2 JH2 (Homo sapiens, UniProt P29597) pKd reading for CNc1ncc(-c2ccccc2)c2cc(NC(=O)C3CC3)nnc12 .
Reply: ≥ 7.00

Ask: Name the recorded pKd of CNc1ncc(-c2ccccc2C(N)=O)c2cc(NC(=O)C3CC3)ncc12 , assay system TYK2 JH2 (Homo sapiens, UniProt P29597).
Reply: 6.00 to 7.00

Ask: # assay system TYK2 JH2 (Homo sapiens, UniProt P29597): give pKd of CNc1ncc(-c2nc3cc(OC)ccc3o2)c2cc(NC(=O)C3CC3)ncc12
Reply: ≥ 7.00

Ask: Name the recorded pKd of O=C(Nc1cc2c(-c3ccccc3)cnc(Cl)c2cn1)C1CC1 , assay system TYK2 JH2 (Homo sapiens, UniProt P29597).
Reply: 6.00 to 7.00

Hey, just so you know, these numbers are from patent US20240025906A1.
